Recorded glycan array binding signal (z-score), one value per entry.
Tested target: Neu5Ac(a2-6)Gal(b1-4)GlcNAc(b1-2)Man(a1-3)Man(b1-4)GlcNAc(b1-4)GlcNAc
Experiment: glycan array binding signal (z-score within array); higher = stronger binding
Cond: glycan notation: IUPAC condensed, linker removed
Shown is part of a subset that was picked to be rich in the strongest signals.
// print number alone

Epa3to2 (Candida glabrata) (protein) MGSSHHHHHHSSGLVPRGSHMKRELSSQNPFGYPIGCSPQDVAIIPGLTMELYSYPIVSGTPPNCYDASYVDPEYPRTGYLKRKMVGKSTGVTGNLNYKYSVEKACMVKYGNLPAGYNYNEPLTVSNFTMILYGYFKAQTTGLHTFFVNADDLLYINFGAGNAFDCCKREDSKTKLGEYVAYDIWHVDSSKNKVSLFLEKDLYYPIRMFFNNRDNNSSLDLSFSVNGATDQISDFSGYLYSVPDQPDTCPAHIGYDTTCR; 2.19
RBMC2 (Vibrio cholerae) (protein) KISVRSGFAIDAIGASASTLVGGTGGNLNAAVNVKDIKAIDLTWGKYYWGGYHLLALDFRMSNGSVISMGSKNYAYSKQTERFTVPAGSRIKGIKAWTAGWLLDGVQFELA; -0.132

Incoming: Returns the measured glycan array binding signal (z-score) for the input binder. Input: CBM13 2a (Mycobacterium tuberculosum), P64849 (protein) DGPVQLKSRLGDVCLDAPSGSWFSPLVINPCNGTDFQRWNLTDDRQVESVAFPGECVNIGNALWARLQPCVNWISQHWTVQPDGLVKSDLDACLTVLGGPDPGTWVSTRWCDPNAPDQQWDSVPLEHHHHHH
Outgoing: -0.031
